For each entry below, report its MIC, M. luteus value.
Test system: Micrococcus luteus (clinical isolate)
run_description: MIC, serial dilutions in Mueller-Hinton broth
Assay type: cell-based
measurement_context: inoculum 10^7 CFU/ml; gram-positive
# output: bare number, implied unit µg/mL

Data request: I'd like to know its MIC, M. luteus. The compound in question is CCCC1OCc2c(CN3CCN(c4cc5c(cc4F)c(=O)c(C(=O)O)cn5C4CC4)CC3)cnc(C)c2O1 (stereo not shown) [Compound I-7]
Data returned: 64

Data request: I'd like to know its MIC, M. luteus. The compound in question is Cc1ncc(CN2CCN(c3cc4c(cc3F)c(=O)c(C(=O)O)cn4C3CC3)CC2)c2c1OC(C)(C)OC2 [Compound I-1]
Data returned: 32

Data request: I'd like to know its MIC, M. luteus. The compound in question is Cc1ncc(CN2CCN(c3cc4c(cc3F)c(=O)c(C(=O)O)cn4C3CC3)CC2)c(CO)c1O [Compound I-2]
Data returned: 4

Data request: I'd like to know its MIC, M. luteus. The compound in question is Cc1ncc(CSCCN2CCN(c3cc4c(cc3F)c(=O)c(C(=O)O)cn4C3CC3)CC2)c(CO)c1O [Compound I-5]
Data returned: 8
